test system: large crabgrass (Digitaria sanguinalis, DIGSA); assay: Post-emerge test, greenhouse herbicide activity screening; assay type: in vivo; conditions: 63 g ai/ha; post-emerge; 14 days after application; rating scale 0-100
Endpoint: Post-emerge Herbicidal Activity DIGSA (phytotoxicity rating)
Reply briefly: the number, and no unit.

Record excerpt, results attached:
Requested read-out: Post-emerge Herbicidal Activity DIGSA (phytotoxicity rating). Entry: CCCOC(=O)C(Cl)Cc1c(OCC)c(Cl)cc(F)c1-n1c(=O)cc(C(F)(F)F)n(C)c1=O (stereo not drawn) [14-66]
100

Field request: Post-emerge Herbicidal Activity DIGSA (phytotoxicity rating) | item: COc1c(Cl)cc(F)c(-n2c(=O)cc(C(F)(F)F)n(C)c2=O)c1NN=CC(C)c1ccccc1 (stereo not drawn)
40

Look up Post-emerge Herbicidal Activity DIGSA (phytotoxicity rating): "COc1c(Cl)cc(F)c(-n2c(=O)cc(C(F)(F)F)n(C)c2=O)c1OC(=O)c1ccc2ccccc2c1"
0

# query: Post-emerge Herbicidal Activity DIGSA (phytotoxicity rating) of entry CCOC(=O)C(Cl)Cc1c(OCC)c(Cl)cc(F)c1-n1c(=O)cc(C(F)(F)F)n(C)c1=O (stereo not drawn)
40

# lookup: Post-emerge Herbicidal Activity DIGSA (phytotoxicity rating) of "COc1c(Cl)cc(F)c(-n2c(=O)cc(C(F)(F)F)n(C)c2=O)c1NN=CCCSC"
20

Further cases:
Which Post-emerge Herbicidal Activity DIGSA (phytotoxicity rating) is listed for "CCOC(=O)NNc1c(OC)c(Cl)cc(F)c1-n1c(=O)cc(C(F)(F)F)n(C)c1=O" ?
0

For CCCOC(=O)C(Cl)Cc1c(OCC)c(Cl)cc(F)c1-n1c(=O)cc(C(F)(F)F)n(C)c1=O (stereo not drawn) [14-65] , what is its reported Post-emerge Herbicidal Activity DIGSA (phytotoxicity rating)?
99
